system.under.test: 5-HT2B receptor (Homo sapiens, UniProt P41595)
Construct: expressed in transfected cells; host or cells: HEK293, stably transfected
Sequence (P41595 whole entry): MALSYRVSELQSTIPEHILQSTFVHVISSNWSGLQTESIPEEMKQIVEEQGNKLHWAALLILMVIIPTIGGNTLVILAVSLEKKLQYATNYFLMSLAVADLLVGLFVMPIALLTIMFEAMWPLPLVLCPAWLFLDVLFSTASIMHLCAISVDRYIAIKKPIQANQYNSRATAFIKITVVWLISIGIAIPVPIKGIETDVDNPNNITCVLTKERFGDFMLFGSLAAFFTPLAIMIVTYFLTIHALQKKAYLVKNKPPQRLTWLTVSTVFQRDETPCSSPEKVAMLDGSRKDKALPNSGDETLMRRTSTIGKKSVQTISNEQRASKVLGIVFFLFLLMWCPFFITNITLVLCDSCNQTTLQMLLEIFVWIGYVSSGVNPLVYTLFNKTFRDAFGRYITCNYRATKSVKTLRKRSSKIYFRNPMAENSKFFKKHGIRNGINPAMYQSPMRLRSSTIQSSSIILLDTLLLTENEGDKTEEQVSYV
assay.name: 5-HT2B receptor radioligand binding ([3H]LSD)
pKi: −log10 of the molar value.

{"compound": "CCN(CC)C(=O)[C@@H]1C=C2c3cccc4[nH]c(Br)c(c34)C[C@H]2N(C)C1 [Compound 35]", "system.under.test": "5-HT2B receptor (Homo sapiens, UniProt P41595)", "pKi": 8.30}

====

system.under.test: 5-HT2A receptor (Homo sapiens)
Sequence (P28223 whole entry): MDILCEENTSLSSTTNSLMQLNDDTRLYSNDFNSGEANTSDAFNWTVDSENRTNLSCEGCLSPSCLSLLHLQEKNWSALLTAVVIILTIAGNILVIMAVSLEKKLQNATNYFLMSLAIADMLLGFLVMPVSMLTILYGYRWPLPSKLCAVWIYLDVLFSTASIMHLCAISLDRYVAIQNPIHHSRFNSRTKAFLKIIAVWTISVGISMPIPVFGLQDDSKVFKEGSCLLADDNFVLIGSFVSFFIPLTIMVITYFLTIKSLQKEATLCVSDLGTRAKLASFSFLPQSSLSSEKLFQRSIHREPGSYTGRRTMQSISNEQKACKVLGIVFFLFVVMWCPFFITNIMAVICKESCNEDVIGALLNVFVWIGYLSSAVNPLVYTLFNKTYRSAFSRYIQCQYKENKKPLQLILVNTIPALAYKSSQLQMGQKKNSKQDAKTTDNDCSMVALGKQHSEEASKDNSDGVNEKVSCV
assay.name: cell-based
Format: cell-based
recorded.conditions: agonist, beta-arrestin recruitment, PathHunter; read-out: 5-HT2A Arrestin EC50
Rule: EC50 below 6 nM gives Met. Equal to or above 6 nM gives Not met.

{"smiles.representation": "CCN(CC)C(=O)[C@@H]1C=C2c3cccc4[nH]cc(c34)C[C@H]2NC1", "answer.label": "Met"}
{"smiles.representation": "CCN(CC)C(=O)[C@@H]1C=C2c3cccc4[nH]cc(c34)C[C@H]2N(Cc2ccc(Cl)cc2)C1", "answer.label": "Not met"}
{"smiles.representation": "CCN(CC)C(=O)[C@@H]1C=C2c3cccc4[nH]cc(c34)C[C@H]2N(Cc2cccc(OC)c2)C1", "answer.label": "Met"}
{"smiles.representation": "CCN(CC)C(=O)[C@@H]1C=C2c3cccc4[nH]cc(c34)C[C@H]2N(Cc2ccccc2)C1", "answer.label": "Met"}
{"smiles.representation": "CCN(CC)C(=O)[C@@H]1C=C2c3cccc4[nH]c(Br)c(c34)C[C@H]2N(CCC(F)(F)F)C1", "answer.label": "Not met"}
{"smiles.representation": "CCN(CC)C(=O)[C@@H]1C=C2c3cccc4[nH]cc(c34)C[C@H]2N(Cc2cccc(O)c2)C1", "answer.label": "Not met"}
{"smiles.representation": "CCNC(=O)[C@@H]1C=C2c3cccc4[nH]cc(c34)C[C@H]2N(Cc2cccc(O)c2)C1", "answer.label": "Not met"}
{"smiles.representation": "CCNC(=O)[C@@H]1C=C2c3cccc4[nH]cc(c34)C[C@H]2N(Cc2cccc(OC)c2)C1", "answer.label": "Not met"}
{"smiles.representation": "CCC[C@@H](C)NC(=O)[C@@H]1C=C2c3cccc4[nH]c(Br)c(c34)C[C@H]2N(C)C1", "answer.label": "Met"}
{"smiles.representation": "CCN(CC)C(=O)[C@@H]1C=C2c3cccc4[nH]cc(c34)C[C@H]2N(Cc2ccccc2O)C1", "answer.label": "Met"}
{"smiles.representation": "CCN(CC)C(=O)[C@@H]1C=C2c3cccc4[nH]cc(c34)C[C@H]2N(Cc2ccc(OC)cc2)C1", "answer.label": "Not met"}
{"smiles.representation": "CCN(CC)C(=O)[C@@H]1C=C2c3cccc4[nH]cc(c34)C[C@H]2N(Cc2ccc(F)cc2)C1", "answer.label": "Not met"}
{"smiles.representation": "CCN(CC)C(=O)[C@@H]1C=C2c3cccc4[nH]cc(c34)C[C@H]2N(CCc2cccc(OC)c2)C1", "answer.label": "Met"}
{"smiles.representation": "CCC(CC)NC(=O)[C@@H]1C=C2c3cccc4[nH]c(Br)c(c34)C[C@H]2N(C)C1", "answer.label": "Met"}
{"smiles.representation": "CCN(CC)C(=O)[C@@H]1C=C2c3cccc4[nH]cc(c34)C[C@H]2N(Cc2ccccn2)C1", "answer.label": "Not met"}
{"smiles.representation": "CC[C@@H](C)NC(=O)[C@@H]1C=C2c3cccc4[nH]c(Br)c(c34)C[C@H]2N(C)C1", "answer.label": "Met"}

====

Here, each record is paired with measured half-life (t1/2) data.
assay.name: in vitro
Assay type: in vitro ADME, mouse
recorded.conditions: MLM (male CD-1) 0.50 mg/mL, NADPH 1 mM, 1 μM compound, pH 7.4, 37° C., 60 min

{"smiles.representation": "CCCN1C[C@H](C(=O)N[C@H](C)CC)C=C2c3cccc4[nH]cc(c34)C[C@H]21", "half-life (t1/2), min": 1.6}
{"smiles.representation": "CCN(CC)C(=O)[C@@H]1C=C2c3cccc4[nH]cc(c34)C[C@H]2N(CC2CC2)C1", "half-life (t1/2), min": 3.7}
{"smiles.representation": "CCN(CC)C(=O)[C@@H]1C=C2c3cccc4[nH]cc(c34)C[C@H]2N(CCc2cccc(OC)c2)C1", "half-life (t1/2), min": 0.9}
{"smiles.representation": "CCCN1C[C@H](C(=O)NC(CC)CC)C=C2c3cccc4[nH]cc(c34)C[C@H]21", "half-life (t1/2), min": 0.6}

====

system.under.test: 5-HT2C receptor (Homo sapiens, UniProt P28335)
Sequence (P28335 33-458): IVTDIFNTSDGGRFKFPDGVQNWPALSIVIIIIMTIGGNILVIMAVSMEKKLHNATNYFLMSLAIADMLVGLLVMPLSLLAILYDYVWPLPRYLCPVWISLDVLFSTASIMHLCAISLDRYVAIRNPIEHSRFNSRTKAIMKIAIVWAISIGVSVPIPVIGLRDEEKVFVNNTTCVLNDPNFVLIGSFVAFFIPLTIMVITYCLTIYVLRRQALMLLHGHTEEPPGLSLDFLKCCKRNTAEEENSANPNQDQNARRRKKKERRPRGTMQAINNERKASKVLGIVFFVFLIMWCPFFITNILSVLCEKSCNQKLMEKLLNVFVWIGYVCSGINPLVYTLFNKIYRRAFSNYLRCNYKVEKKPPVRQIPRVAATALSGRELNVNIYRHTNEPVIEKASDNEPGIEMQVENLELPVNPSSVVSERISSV
assay.name: cell-based

{"smiles.representation": "CCN(CC)C(=O)[C@@H]1C=C2c3cccc4[nH]c(Br)c(c34)C[C@H]2N(C)C1", "EC50": "> 10 µM"}

====

assay.name: in vitro
Format: in vitro ADME, mouse
recorded.conditions: mouse, microsomes, pH 7.4

{"molecule": "CCC(CC)NC(=O)[C@@H]1C=C2c3cccc4[nH]cc(c34)C[C@H]2N(C)C1 [Int14]", "half-life (t1/2)": "6.07 min"}
{"molecule": "CCN(CC)C(=O)[C@@H]1C=C2c3cccc4[nH]cc(c34)C[C@H]2N(C)C1 [LSD, lysergic acid diethylamide, reference compound]", "half-life (t1/2)": "31.3 min"}
{"molecule": "CCC[C@@H](C)NC(=O)[C@@H]1C=C2c3cccc4[nH]cc(c34)C[C@H]2N(C)C1 [Int17]", "half-life (t1/2)": "8.252 min"}
{"molecule": "CC[C@@H](C)NC(=O)[C@@H]1C=C2c3cccc4[nH]cc(c34)C[C@H]2N(C)C1 [Int8]", "half-life (t1/2)": "39.9 min"}

====

system.under.test: 5-HT2A receptor (Homo sapiens)
assay.name: cell-based
Format: cell-based
Design: expressed in transfected cells; host or cells: HEK293, stably transfected
recorded.conditions: agonist, Ca2+ flux, HEK293
Description: Functional Assays at 5-HT2A, 5-HT2B, and 5-HT1A. Agonist activity at 5-HT2A, 5-HT2B, 5HT2C and 5-HT1A receptors was determined using a FLIPR Ca^2+ flux assay at WuXi AppTec (Hong Kong) Limited according to their standard protocols. […] 10 μL of references and compounds were then transferred from the compound plate into the cell plate and the fluorescent signal was read.
Here, each record is paired with measured log10 of EC50 data.
measurement.name: log10 of EC50 (log10 of the value in nM)

{"smiles.representation": "CCN(CC)C(=O)[C@@H]1C=C2c3cccc4[nH]cc(c34)C[C@H]2N(Cc2ccc(Cl)cc2)C1", "log10 of EC50": 3.51}
{"smiles.representation": "CCN(CC)C(=O)[C@@H]1C=C2c3cccc4[nH]cc(c34)C[C@H]2N(Cc2cccc(F)c2)C1", "log10 of EC50": 2.67}
{"smiles.representation": "CCN(CC)C(=O)[C@@H]1C=C2c3cccc4[nH]cc(c34)C[C@H]2N(Cc2ccccc2C)C1", "log10 of EC50": 3.08}
{"smiles.representation": "CCN(CC)C(=O)[C@@H]1C=C2c3cccc4[nH]cc(c34)C[C@H]2N(Cc2cccc(C)c2)C1", "log10 of EC50": 2.63}
{"smiles.representation": "CCN(C)C(=O)[C@@H]1C=C2c3cccc4[nH]cc(c34)C[C@H]2N(Cc2cccc(OC)c2)C1", "log10 of EC50": 2.90}
{"smiles.representation": "CCN(CC)C(=O)[C@@H]1C=C2c3cccc4[nH]cc(c34)C[C@H]2N(Cc2cccc3ccccc23)C1", "log10 of EC50": 2.43}
{"smiles.representation": "O=C([C@@H]1C=C2c3cccc4[nH]cc(c34)C[C@H]2N(Cc2ccccc2)C1)N1CCCC1", "log10 of EC50": 2.95}

====

system.under.test: 5-HT1B receptor (Homo sapiens, UniProt P28222)
Construct: expressed in transfected cells
Sequence (P28222 whole entry): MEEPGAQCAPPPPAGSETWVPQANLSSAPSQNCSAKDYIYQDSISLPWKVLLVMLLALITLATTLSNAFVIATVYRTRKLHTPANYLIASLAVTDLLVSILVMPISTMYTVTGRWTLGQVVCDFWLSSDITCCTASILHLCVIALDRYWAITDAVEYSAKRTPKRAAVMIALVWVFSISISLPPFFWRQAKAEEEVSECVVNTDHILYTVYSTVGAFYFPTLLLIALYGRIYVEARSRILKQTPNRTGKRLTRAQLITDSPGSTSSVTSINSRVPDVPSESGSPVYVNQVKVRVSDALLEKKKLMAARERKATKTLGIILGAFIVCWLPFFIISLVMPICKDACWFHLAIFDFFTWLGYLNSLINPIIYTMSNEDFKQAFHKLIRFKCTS
assay.name: cAMP accumulation functional assay at 5-HT1B
Type: cell-based
recorded.conditions: agonist, cAMP accumulation, max dose; read-out: 5-HT1B % Act @ Max Dose

{"compound": "CCN(CC)C(=O)[C@@H]1C=C2c3cccc4[nH]cc(c34)C[C@H]2N(Cc2cocn2)C1", "Emax, %": 73.6}
{"compound": "CCCN1C[C@H](C(=O)N[C@H](C)CC)C=C2c3cccc4[nH]cc(c34)C[C@H]21", "Emax, %": 98.7}
{"compound": "C[C@H]1C[C@H](C)N1C(=O)[C@@H]1C=C2c3cccc4[nH]cc(c34)C[C@H]2N(CCCF)C1", "Emax, %": 77.2}
{"compound": "CCCN1C[C@H](C(=O)N[C@H](C)CC)C=C2c3cccc4[nH]c(Br)c(c34)C[C@H]21", "Emax, %": 78.8}
{"compound": "CCN(CC)C(=O)[C@@H]1C=C2c3cccc4[nH]cc(c34)C[C@H]2N(Cc2ccccc2)C1", "Emax, %": 62.8}
{"compound": "CCCN1C[C@H](C(=O)N(CC)CC)C=C2c3cccc4[nH]c(Br)c(c34)C[C@H]21", "Emax, %": 81.5}
{"compound": "CCN(CC)C(=O)[C@@H]1C=C2c3cccc4c3C(CN4)C[C@H]2N(C)C1 (mixture of isomers)", "Emax, %": 90.7}
{"compound": "CCN(CC)C(=O)[C@@H]1C=C2c3cccc4[nH]c(Br)c(c34)C[C@H]2N(CCCF)C1", "Emax, %": 61.5}
{"compound": "CCN(CC)C(=O)[C@@H]1C=C2c3cccc4[nH]cc(c34)C[C@H]2N(Cc2ccc(F)c(OC)c2)C1", "Emax, %": 31}
{"compound": "CCN(CC)C(=O)[C@@H]1C=C2c3cccc4[nH]cc(c34)C[C@H]2N(CC2CC2)C1", "Emax, %": 90.4}
{"compound": "CCN(CC)C(=O)[C@@H]1C=C2c3cccc4[nH]cc(c34)C[C@H]2N(Cc2ccccn2)C1", "Emax, %": 89.2}
{"compound": "CC[C@@H](C)NC(=O)[C@@H]1C=C2c3cccc4[nH]c(Br)c(c34)C[C@H]2N(C)C1", "Emax, %": 83.8}
{"compound": "CCN(CC)C(=O)[C@@H]1C=C2c3cccc4[nH]cc(c34)C[C@H]2N(CCc2ccccn2)C1", "Emax, %": 83.7}
